These measurements were taken from PubChem BioAssay (NCI).

Consider the following compounds; for each one, report its TGI.
Tested on: CAKI-1 renal
assay_explanation: NCI tumour cell line growth inhibition, 48 h

Please report the measured TGI for CC(C)n1c(=O)[nH]n(-c2ccccc2)c1=O > 100 µM

Please report the measured TGI for OCCCc1cc(O)c2c(c1)C(CO)C(c1ccc(O)c(O)c1)O2 (centres undefined) > 100 µM

Please report the measured TGI for CSc1nc2c(c(=O)[nH]1)N=C(c1ccc(Cl)cc1)CC(c1ccccc1)N2 (centres undefined) 34.2 µM

Please report the measured TGI for CSC1=Nc2c(c(C)c(C)n2COC(CO)CO)C2=NC(=O)CC(C)N12 (centres undefined) > 100 µM

Please report the measured TGI for COc1ccc(NC(=O)CC(=O)N2N=C(N(CCC#N)c3cccc(C)c3)CC2c2ccccc2)cc1 (centres undefined) > 100 µM

Please report the measured TGI for Cc1c(-c2nnc(-c3ccc(F)cc3)o2)nnn1-c1ccnc2c(C(F)(F)F)cccc12 > 100 µM

Please report the measured TGI for C=Cc1cc(OC)c2c(c1)c(=O)oc1c2cc(OC)c2c(O)ccc(C3OC(C)C(O)C(C)(O)C3O)c21 (centres undefined) 0.0916 µM

Please report the measured TGI for O=C1CCC(N2Cc3c(C#CCCCNC(=O)c4cc5c(o4)C(=O)c4ccccc4C5=O)cccc3C2=O)C(=O)N1 (centres undefined) 30.7 µM

Please report the measured TGI for O=[N+]([O-])c1cc(-c2nnc(C34CC5CC(CC(C5)C3)C4)o2)cc([N+](=O)[O-])c1 > 100 µM

* * *

Test system: SK-MEL-2 melanoma
assay_explanation: NCI tumour cell line growth inhibition, 48 h; in the data active means GI50 below about 0.43 µM; inactive means the rest
Please reply with one of these outcomes: 1 (active), -1 (inactive)

Write down the call the test reported for this compound. Item: COc1ccc(-c2nn(-c3cccc(NC(=O)c4cccc(C(F)(F)F)c4)c3)cc2-c2ccncc2)cc1Cl -1

Write down the call the test reported for this compound. Item: CC(C)n1c(=O)n(C)c2cnc3cc(F)c(-c4ccc(OCCCN5CCCCC5)nc4)cc3c21 -1

Write down the call the test reported for this compound. Item: O=C(NCCNc1nccc(-c2c(-c3ccc(F)cc3)nc3sccn23)n1)c1ccccc1 -1

Write down the call the test reported for this compound. Item: O=C1CC[C@H](c2ccc(O)c3c2C(=O)[C@@H]2O[C@@H]2C3=O)c2cccc(O)c21 -1

Write down the call the test reported for this compound. Item: COc1ccc2c(c1)/C(=C\c1c(Cl)n(C)c3ccccc13)C(=O)N2 -1

Write down the call the test reported for this compound. Item: COc1ccc(-c2nc(N3CCOCC3)c3sc(CN(C)c4ncc(C(=O)NO)cn4)cc3n2)cn1 1

Write down the call the test reported for this compound. Item: O=C1/C(=C/c2ccccc2F)CN(C(=O)C(Cl)Cl)C/C1=C\c1ccccc1F -1

Write down the call the test reported for this compound. Item: C=Cc1cc(OC)c2c(c1)c(=O)oc1c2cc(OC)c2c(O)ccc(C3OC(C)C(O)C(C)(O)C3O)c21 (stereo not drawn) 1

* * *

Test system: ACHN renal
assay_explanation: NCI tumour cell line growth inhibition, 48 h
Consider the following compounds; for each one, report its TGI.

Fetch value of TGI on ACHN renal for CCCC(=O)Nc1ccc2c(c1)CN1C(=O)c3ccccc3C1=N2 . > 100 µM

Fetch value of TGI on ACHN renal for O=C(Nc1ccc(OCc2nnc(-c3ccccc3)o2)c(F)c1)Nc1ccc(Cl)c(C(F)(F)F)c1 . 4.42 µM

Fetch value of TGI on ACHN renal for COC(=O)C1(Cc2cccc(C)c2)Cc2c(C)cccc2C1=O (stereo unspecified) . > 100 µM

Fetch value of TGI on ACHN renal for Oc1ccc(-c2cn3cc(Cl)sc3n2)cc1 . 24.6 µM

Fetch value of TGI on ACHN renal for COc1ccc(-c2nc(N3CCOCC3)c3sc(CN(C)c4ncc(C(=O)NO)cn4)cc3n2)cn1 . 0.0345 µM

Fetch value of TGI on ACHN renal for C=C(C)[C@@H]1CC[C@]2(C(=O)O)CC[C@]3(C)[C@H](CC[C@@H]4[C@@]5(C)C/C(=C/c6ccc(OC)cc6)C(=O)C(C)(C)[C@@H]5CC[C@]43C)[C@@H]12 . 10.5 µM

Fetch value of TGI on ACHN renal for NC(=NCCN1CCCCCCC1)NO . 43.4 µM

Fetch value of TGI on ACHN renal for Cn1c(=O)cc(N=Nc2ccc(Cl)c(Cl)c2)[nH]c1=O . 47.4 µM

Fetch value of TGI on ACHN renal for COc1cc2c(cc1OC)C1Cc3cc(OC)c(OC)cc3C(C2)O1 . > 100 µM

Fetch value of TGI on ACHN renal for CSC1=Nc2c(c(C)c(C)n2COC(CO)CO)C2=NC(=O)CC(C)N12 (stereo unspecified) . > 100 µM

Fetch value of TGI on ACHN renal for O=C(c1nc2ccc(Cl)cc2[nH]c1=O)C(O)c1ccc2c(c1)OCO2 (stereo unspecified) . > 100 µM

Fetch value of TGI on ACHN renal for CCOC(=O)C(=O)Nc1c(C)cccc1C(C)C . > 100 µM

Fetch value of TGI on ACHN renal for COC1=CC(c2ccc[nH]2)=N/C1=C\c1[nH]c(C)c(C(C)=O)c1C . > 55.8 µM

Fetch value of TGI on ACHN renal for CCCC1=C(C(=O)OCC)C(c2ccccc2OC)C(C#N)=C(N)O1 (stereo unspecified) . > 100 µM

Fetch value of TGI on ACHN renal for c1ccc(CCN2CCOCC2)nc1 . > 100 µM

Fetch value of TGI on ACHN renal for COC(=O)CCc1ccc2c(c1)CC1(Cc3ccccc3C1)C2 . > 100 µM

Fetch value of TGI on ACHN renal for O=C(CN1C(=O)S/C(=C\C(Cl)=C\c2ccccc2)C1=O)NCCc1ccc(O)cc1 . 8.06 µM

Fetch value of TGI on ACHN renal for Clc1ccc(C2=C(c3ccccc3)C(c3ccc(Cl)cc3)N3C(=N[C@H]4CCCC[C@@H]43)N2)cc1 (stereo partly specified) . 23.2 µM

Fetch value of TGI on ACHN renal for NC(=O)CCC(CCC(N)=O)(CCC(N)=O)[N+](=O)[O-] . > 100 µM

Fetch value of TGI on ACHN renal for CC(C)[Si](OC1=C(C(=O)N(C)c2ccccc2Cl)CCCCC1)(C(C)C)C(C)C . > 100 µM

Fetch value of TGI on ACHN renal for COC(=O)/C(=N\NC(=S)NN)C(C(=O)OC)C(=O)C(=O)Nc1cccc(C(F)(F)F)c1 (stereo unspecified) . > 100 µM

* * *

Consider the following compounds; for each one, report its TGI.
System: OVCAR-4 ovarian
assay_explanation: NCI tumour cell line growth inhibition, 48 h
Where a SMILES comes first, the peptide text is derived from it.

Please report the measured TGI for C[C@H](N[C@H]1CCC[C@]1(O)C#Cc1ccc2c(c1)OCO2)c1ccccc1 > 25 µM

Please report the measured TGI for C(=NCCCN1CCN(CCCN=Cc2cccc3ccccc23)CC1)c1cccc2ccccc12 > 100 µM

Please report the measured TGI for CCOC(=O)C(=O)Nc1c(C)cccc1C(C)C > 100 µM

Please report the measured TGI for COc1cc2c(cc1OC)C1Cc3cc(OC)c(OC)cc3C(C2)O1 > 100 µM

Please report the measured TGI for Cc1cc2cc3cc(C)c(N)cc3[n+](C)c2cc1N 8.78 µM

Please report the measured TGI for N#Cc1c(-c2cccc(Cl)c2)cc(-c2ccc(Cl)cc2)nc1N 33.1 µM

Please report the measured TGI for CC(C(=O)O)/C(=C\c1ccc2c(c1)OCO2)C(=O)O (stereo unspecified) > 100 µM

Please report the measured TGI for NC(=NCCN1CCCCCCC1)NO > 100 µM

Please report the measured TGI for S=C(c1ccc2c(c1)OCO2)N1CCN(c2cccc(Cl)c2)CC1 > 100 µM

Please report the measured TGI for CCCCCCCCCCCCCCCCCC(=O)OCC(C[As](=O)(O)O)OC(=O)CCCCCCCCCCCCCCCCC (stereo unspecified) > 100 µM

Please report the measured TGI for CCOC(=O)N1CCN(c2nc(C)n(-c3ccccc3)c(=S)c2C#N)CC1 > 100 µM

Please report the measured TGI for C=C(C)[C@@H]1CC[C@]2(C(=O)O)CC[C@]3(C)[C@H](CC[C@@H]4[C@@]5(C)C/C(=C/c6ccc(OC)cc6)C(=O)C(C)(C)[C@@H]5CC[C@]43C)[C@@H]12 11.2 µM

Please report the measured TGI for COc1ccc(C(=O)CC(=O)C(=O)Nc2ccc(C)c(C)c2)cc1 > 100 µM

Please report the measured TGI for N#Cc1cc(N(CCCl)CCCl)c([N+](=O)[O-])cc1[N+](=O)[O-] > 100 µM

Please report the measured TGI for N#CCCSC(=S)C1CCCC1=N (stereo unspecified) > 100 µM

Please report the measured TGI for Cn1c(=O)cc(N=Nc2ccc(Cl)c(Cl)c2)[nH]c1=O 61.7 µM

Please report the measured TGI for COc1ccc(C(=O)C(C(=O)C(=O)NC2C3CC4CC(C3)CC2C4)c2ccc(OC)cc2)cc1 (stereo unspecified) > 100 µM

Please report the measured TGI for COc1cccc(Cn2c(-c3nonc3NC(C)=O)nc3ccccc32)c1 > 100 µM

Please report the measured TGI for C[C@]12CC[C@H]3[C@@H](CCC4=CC(=O)CC[C@@]43C)[C@@H]1CC[C@@H]2C(=O)Nc1ccc([N+](=O)[O-])c(C(F)(F)F)c1 34.9 µM

Please report the measured TGI for Cc1cc(=O)oc2c(OS(C)(=O)=O)c(OS(C)(=O)=O)ccc12 > 100 µM

Please report the measured TGI for O=C(O)CP(=O)(O)O > 100 µM

Please report the measured TGI for Cc1nn(-c2ccccc2)c2nc3c(nc12)C1=NCCN1C(c1ccc(Cl)cc1)N3 (stereo unspecified) 20.9 µM

Please report the measured TGI for O=NN/C(=C1\Nc2ccc([N+](=O)[O-])cc2NC1=O)C(O)c1ccc([N+](=O)[O-])cc1 (stereo unspecified) > 100 µM

Please report the measured TGI for O=C(O)c1c[nH]c2c(OCc3ccccc3)c3ccccc3c(O)c2c1=O > 100 µM

Please report the measured TGI for O=[N+]([O-])c1ccc(N/N=C(\c2ccccc2)c2ccccn2)nc1 > 100 µM

Please report the measured TGI for CS/C(=N\S(=O)(=O)c1cc(C)c(Cl)cc1Cl)NNc1cnc2ccccc2n1 > 100 µM

Please report the measured TGI for Clc1ccc(C2=C(c3ccccc3)C(c3ccc(Cl)cc3)N3C(=N[C@H]4CCCC[C@@H]43)N2)cc1 (stereo partly specified) 21.4 µM

Please report the measured TGI for Cc1[nH]nc2ccc3nc(-c4ccc5[nH]ncc5c4)c4c(c3c12)CCCC4 28 µM

Please report the measured TGI for CC(C)n1c(=O)[nH]n(-c2ccccc2)c1=O > 100 µM

Please report the measured TGI for O=C(c1nc2ccc(Cl)cc2[nH]c1=O)C(O)c1ccc2c(c1)OCO2 (stereo unspecified) > 100 µM

Please report the measured TGI for c1ccc(CN2CCCCC(Sc3ccccc3)CC2)cc1 (stereo unspecified) > 100 µM

Please report the measured TGI for C/C=N\n1c(C)c(C#N)c(C#N)c1N > 100 µM

Please report the measured TGI for Cc1sc(Nc2ccccc2[N+](=O)[O-])c(C#N)c1C > 100 µM

Please report the measured TGI for COc1cc([C@H]2CC(=O)C[C@@H](c3cc(OC)c(OC)c(OC)c3)C23C(=O)c2ccccc2C3=O)cc(OC)c1OC > 100 µM

Please report the measured TGI for COc1cc(Nc2nc3cc(C(F)(F)F)ccc3nc2-c2ccccc2)cc(OC)c1OC 51.3 µM

Please report the measured TGI for O=C(NCCNc1nccc(-c2c(-c3ccc(F)cc3)nc3sccn23)n1)c1ccccc1 71.7 µM

Please report the measured TGI for CC1=CC(=O)[C@@H](O)[C@]2(C)[C@H]3[C@@]4(O)OC[C@@]35[C@@H](C[C@@H]12)OC(=O)C(OC(=O)CC1=CCCC1)[C@H]5[C@@H](C)[C@H]4O (stereo partly specified) 0.284 µM

Please report the measured TGI for CC1=NC(C(C)C)C(=O)O1 (stereo unspecified) > 100 µM

Please report the measured TGI for CC(=O)N1CC(=O)NC1=S > 100 µM

Please report the measured TGI for C=C(C)[C@H]1C[C@@H]2O[C@@](O)(/C(C)=C\C(=O)/C=C(/C)C[C@H]3OC(=O)[C@@]24O[C@H]34)[C@@H]1O > 100 µM

Please report the measured TGI for CNC(=O)CNC(=O)C(NC(=O)CNC(=O)C1CCCN1C(=O)C(C)NC(=O)C(NC(C)=O)C(C)C)C(C)C (stereo unspecified) (Ac-VAPGVG-NHMe; configuration not given here) > 100 µM
